- system: UniProt:P36544
- Sequence (P36544 23-502 limits assumed): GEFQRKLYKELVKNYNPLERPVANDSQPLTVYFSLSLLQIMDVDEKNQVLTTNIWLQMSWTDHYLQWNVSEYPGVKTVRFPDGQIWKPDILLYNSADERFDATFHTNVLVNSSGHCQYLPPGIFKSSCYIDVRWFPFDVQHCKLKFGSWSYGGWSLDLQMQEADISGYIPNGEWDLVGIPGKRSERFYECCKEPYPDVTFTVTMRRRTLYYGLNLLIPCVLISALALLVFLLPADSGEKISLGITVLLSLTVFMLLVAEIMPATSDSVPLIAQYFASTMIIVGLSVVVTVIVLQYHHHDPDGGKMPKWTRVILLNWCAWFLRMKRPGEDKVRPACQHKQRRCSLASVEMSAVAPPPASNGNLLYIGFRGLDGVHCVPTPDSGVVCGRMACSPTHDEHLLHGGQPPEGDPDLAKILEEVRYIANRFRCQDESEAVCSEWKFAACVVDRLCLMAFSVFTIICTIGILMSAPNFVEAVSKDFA
- protocol: cell-based
- Type: cell-based
- testSettings: SEM
Where a SMILES comes first, the peptide text is derived from it. Bridges are numbered along the chain shown (N, C = ends).
Give measured IC50 for each item. Keep answers brief.
The figure you give is taken to be in nM; do not add the unit.

IC50 lookup needed for C[C@@H]1NC(=O)[C@@H]2CSSC[C@@H](C(N)=O)NC(=O)[C@@H]3CCCN3C(=O)[C@H](Cc3c[nH]cn3)NC(=O)[C@H](CC(N)=O)NC(=O)[C@H](Cc3c[nH]cn3)NC(=O)[C@H](CCCNC(=N)N)NC(=O)[C@H](CSSC[C@H](NC(=O)[C@@H](N)CO)C(=O)N2)NC(=O)[C@H](C)NC(=O)[C@@H]2CCCN2C(=O)[C@H](CC(N)=O)NC1=O [gAusIA [∆5 ∆16]] (H-SCCANPACRHNHPC-NH2; disulfide 2-8, 3-14) , thanks.
241

Cool, now CC(C)C[C@@H]1NC(=O)[C@H](CCCNC(=N)N)NC(=O)[C@@H]2CSSC[C@H](NC(=O)[C@@H](NC(=O)[C@@H](N)CO)CSSC[C@@H](C(=O)N[C@H](C(N)=O)C(C)C)NC(=O)[C@@H]3CCCN3C(=O)[C@H](Cc3c[nH]cn3)NC(=O)[C@H](CC(N)=O)NC1=O)C(=O)N[C@@H](C)C(=O)N[C@@H](CCCNC(=N)N)C(=O)N[C@@H](CC(N)=O)C(=O)N1CCC[C@H]1C(=O)N[C@@H](C)C(=O)N2 [rAusIA [H11L]] (H-SCCARNPACRLNHPCV-NH2; disulfide 2-15, 3-9)
30000

Cool, now CC(C)[C@H](NC(=O)[C@@H]1CSSC[C@@H]2NC(=O)[C@@H](NC(=O)[C@@H](N)CO)CSSC[C@H](NC(=O)[C@H](C)NC(=O)[C@@H]3CCCN3C(=O)[C@H](CC(N)=O)NC(=O)[C@H](C)NC2=O)C(=O)N[C@@H](CCCNC(=N)N)C(=O)N[C@@H](Cc2c[nH]cn2)C(=O)N[C@@H](CC(N)=O)C(=O)N[C@@H](Cc2c[nH]cn2)C(=O)N2CCC[C@H]2C(=O)N1)C(N)=O [gAusIA [∆5]] (H-SCCANPACRHNHPCV-NH2; disulfide 2-8, 3-14)
590

Cool, now C[C@@H]1NC(=O)[C@@H]2CSSC[C@H](NC(=O)[C@H](C)NC(=O)[C@@H]3CCCN3C(=O)[C@H](CC(N)=O)NC1=O)C(=O)N[C@@H](CCCNC(=N)N)C(=O)N[C@@H](Cc1c[nH]cn1)C(=O)N[C@@H](CC(N)=O)C(=O)N[C@@H](Cc1c[nH]cn1)C(=O)N1CCC[C@H]1C(=O)N[C@H](C(N)=O)CSSC[C@H](NC(=O)[C@@H](N)CO)C(=O)N2 [rAusIA [∆5 ∆16]] (H-SCCANPACRHNHPC-NH2; disulfide 2-14, 3-8)
27000

Cool, now CC(C)[C@H](NC(=O)[C@@H]1CSSC[C@@H]2NC(=O)[C@@H](NC(=O)[C@@H](N)CO)CSSC[C@H](NC(=O)[C@H](C)NC(=O)[C@@H]3CCCN3C(=O)[C@H](CC(N)=O)NC(=O)[C@H](CCCNC(=N)N)NC2=O)C(=O)N[C@@H](CCCNC(=N)N)C(=O)N[C@@H](Cc2c[nH]cn2)C(=O)N[C@@H](CC(N)=O)C(=O)N[C@@H](Cc2c[nH]cn2)C(=O)N2CCC[C@H]2C(=O)N1)C(N)=O [gAusIA [∆4]] (H-SCCRNPACRHNHPCV-NH2; disulfide 2-8, 3-14)
1000

----------
- system: UniProt:P36544
- protocol: cell-based
- Assay type: cell-based
- testSettings: SEM
Where a SMILES comes first, the peptide text is derived from it. Bridges are numbered along the chain shown (N, C = ends).
Give measured pIC50 for each item. Keep answers brief.
Notebook: values listed as pIC50 are -log10 of the concentration (mol/L).

pIC50 lookup needed for CC(C)[C@H](NC(=O)[C@@H]1CSSC[C@H](NC(=O)[C@@H](N)CO)C(=O)N[C@H]2CSSC[C@H](NC(=O)[C@H](C)NC(=O)[C@@H]3CCCN3C(=O)[C@H](CC(N)=O)NC(=O)[C@H](CO)NC(=O)[C@H](C)NC2=O)C(=O)N[C@@H](CCCNC(=N)N)C(=O)N[C@@H](Cc2c[nH]cn2)C(=O)N[C@@H](CC(N)=O)C(=O)N[C@@H](Cc2c[nH]cn2)C(=O)N2CCC[C@H]2C(=O)N1)C(N)=O [rAusIA [R5S]] (H-SCCASNPACRHNHPCV-NH2; disulfide 2-15, 3-9) , thanks.
4.15

Cool, now CC(C)[C@H](NC(=O)[C@@H]1CSSC[C@H](NC(=O)[C@@H](N)CO)C(=O)N[C@H]2CSSC[C@H](NC(=O)[C@H](C)NC(=O)[C@@H]3CCCN3C(=O)[C@H](CC(N)=O)NC(=O)[C@H](CO)NC2=O)C(=O)N[C@@H](CCCNC(=N)N)C(=O)N[C@@H](Cc2c[nH]cn2)C(=O)N[C@@H](CC(N)=O)C(=O)N[C@@H](Cc2c[nH]cn2)C(=O)N2CCC[C@H]2C(=O)N1)C(N)=O [rAusIA [A4S ∆5]] (H-SCCSNPACRHNHPCV-NH2; disulfide 2-14, 3-8)
4.54

FYI, the data here is from paper PMC8578332.
